test system: mice; assay: Assessment of behaviour and mortality in mice (Irwin's method); format: in vivo; details: dose 1000 (mg/kg per os), n.e. = no effect, (*) = in connection with death rate only
Property name: Symptoms

Below: 6 compounds and their reported Symptoms.
INSERT INTO results (compound, target_system, property_name, reported) VALUES
  ('CCCCCCCOC(=O)C[C@H](C[N+](C)(C)C)OC(C)=O [ST 904, acetyl L-carnitine heptyl ester chloride]', 'mice', 'Symptoms', 'convulsions (*)'),
  ('CCCCCCCOC(=O)C[C@H](C[N+](C)(C)C)OC(=O)C(C)C [ST 713]', 'mice', 'Symptoms', 'convulsions (*)'),
  ('CC(C)COC(=O)C[C@H](C[N+](C)(C)C)OC(=O)C(C)C [ST 305]', 'mice', 'Symptoms', 'n.e.'),
  ('CC(C)COC(=O)C[C@H](C[N+](C)(C)C)OC(=O)CC(C)C [ST 684]', 'mice', 'Symptoms', 'n.e.'),
  ('CCCCCCCOC(=O)C[C@H](C[N+](C)(C)C)OC(=O)CC(C)C [ST 697]', 'mice', 'Symptoms', 'convulsions (*)'),
  ('CCCCOC(=O)C[C@H](C[N+](C)(C)C)OC(=O)CC(C)C [ST 683]', 'mice', 'Symptoms', 'convulsions (*)');

IN: Give the measured Symptoms of CCCCCCCCCCCOC(=O)C[C@H](C[N+](C)(C)C)OC(=O)C(C)C [ST 712] .
OUT: n.e.

---

system: mice; assay: Assessment of behaviour and mortality in mice (Irwin's method); type: in vivo; conditions: dose 1000 (mg/kg per os), dead/treated, 4 animals/dose
Property name: Death rate

Below: 5 molecules and their reported Death rate.
INSERT INTO assay_data (molecule, reported) VALUES
  ('CCCCCCCCCCCOC(=O)C[C@H](C[N+](C)(C)C)OC(=O)C(C)C', '0/4'),
  ('CCCCCCCOC(=O)C[C@H](C[N+](C)(C)C)OC(=O)CC(C)C', '4/4'),
  ('CCCCCCCCCCCOC(=O)C[C@H](C[N+](C)(C)C)OC(=O)CC(C)C', '0/4'),
  ('CCCCCCCOC(=O)C[C@H](C[N+](C)(C)C)OC(C)=O [ST 904, acetyl L-carnitine heptyl ester chloride]', '4/4'),
  ('CCCCCCCOC(=O)C[C@H](C[N+](C)(C)C)OC(=O)C(C)C', '4/4');

Record Death rate per entry; entries follow.
1. CC(C)COC(=O)C[C@H](C[N+](C)(C)C)OC(=O)C(C)C
2. CCCCOC(=O)C[C@H](C[N+](C)(C)C)OC(=O)CC(C)C
3. CC(C)COC(=O)C[C@H](C[N+](C)(C)C)OC(=O)CC(C)C

OUT:
["0/4", "4/4", "0/4"]

---

system: mice; assay: Assessment of behaviour and mortality in mice (Irwin's method); type: in vivo; details: dose 600 (mg/kg per os), dead/treated, 4 animals/dose
Property name: Death rate

INSERT INTO assay_data (compound, property_name, reported) VALUES
  ('CCCCCCCOC(=O)C[C@H](C[N+](C)(C)C)OC(=O)C(C)C', 'Death rate', '3/4'),
  ('CCCCOC(=O)C[C@H](C[N+](C)(C)C)OC(=O)CC(C)C', 'Death rate', '2/4'),
  ('CCCCCCCOC(=O)C[C@H](C[N+](C)(C)C)OC(=O)CC(C)C', 'Death rate', '2/4');

From here, focus on the item given below.
IN: Give the measured Death rate of CCCCCCCOC(=O)C[C@H](C[N+](C)(C)C)OC(C)=O [ST 904, acetyl L-carnitine heptyl ester chloride] .
OUT: 2/4

---

system: mice; test: Assessment of behaviour and mortality in mice (Irwin's method); assay type: in vivo; settings: dose 300 (mg/kg per os), n.e. = no effect, (*) = in connection with death rate only
Property name: Symptoms

INSERT INTO assay_data (compound, property_name, reported) VALUES
  ('CCCCCCCOC(=O)C[C@H](C[N+](C)(C)C)OC(=O)C(C)C', 'Symptoms', 'convulsions (*)'),
  ('CCCCOC(=O)C[C@H](C[N+](C)(C)C)OC(=O)CC(C)C', 'Symptoms', 'n.e.'),
  ('CCCCCCCOC(=O)C[C@H](C[N+](C)(C)C)OC(=O)CC(C)C', 'Symptoms', 'convulsions (*)'),
  ('CCCCCCCOC(=O)C[C@H](C[N+](C)(C)C)OC(C)=O [ST 904, acetyl L-carnitine heptyl ester chloride]', 'Symptoms', 'n.e.');
